Target: Neu5Ac(a2-3)Gal(b1-3)GalNAc(b1-4)[Neu5Ac(a2-8)Neu5Ac(a2-3)]Gal(b1-4)Glc
Assay: glycan array binding signal (z-score within array); higher = stronger binding
Details: glycan notation: IUPAC condensed, linker removed
About 410 targets per protein were measured; listed, in parts, are those with the strongest signals and a random draw of the rest.
glycan array binding signal (z-score) values, listed per item
Please reply with the value in numeric form only.

[[record]]
binder = "SAOUHSC 02783 (Staphylococcus aureus), Q5HD69 (protein) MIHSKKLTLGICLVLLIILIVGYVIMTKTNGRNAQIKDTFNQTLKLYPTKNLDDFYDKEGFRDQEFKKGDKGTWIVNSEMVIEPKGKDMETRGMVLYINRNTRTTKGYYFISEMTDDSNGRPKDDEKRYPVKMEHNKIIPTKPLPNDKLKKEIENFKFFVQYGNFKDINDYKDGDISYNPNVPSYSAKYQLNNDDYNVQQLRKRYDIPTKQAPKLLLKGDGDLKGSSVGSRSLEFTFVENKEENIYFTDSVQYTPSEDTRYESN"
resultvalue = -0.869

[[record]]
binder = "CBM40 CPF071 (Clostridium perfringens) (protein) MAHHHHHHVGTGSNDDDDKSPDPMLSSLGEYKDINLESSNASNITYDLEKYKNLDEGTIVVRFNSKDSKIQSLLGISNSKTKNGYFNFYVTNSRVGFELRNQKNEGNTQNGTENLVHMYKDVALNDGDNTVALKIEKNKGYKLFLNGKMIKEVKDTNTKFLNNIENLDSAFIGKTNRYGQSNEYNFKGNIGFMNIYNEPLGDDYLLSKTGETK"
resultvalue = -0.469


Next, consider the following binder.
Q. Hello, please tell me recorded glycan array binding signal (z-score) for this one: CFEM-CGl (Candida glabrata), Q6FRS0 (protein) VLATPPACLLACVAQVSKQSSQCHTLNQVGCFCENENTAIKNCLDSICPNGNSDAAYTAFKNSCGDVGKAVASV
A. -0.372
